Test system: K-562 (Leukemia)
Experiment: five dose-response growth inhibition/cytotoxicity, K-562
Format: cell-based, human
Settings: read-out: LC50 (the source's name)
Reported CC50 by item:
property-label: CC50

                               smiles_input  property_label  obs_value
0  O=C1NC(=S)NC(=O)C1=Cc1cn(C(=O)c2cccc3ccccc23)c2ccccc12            CC50   > 100 µM
1  COc1ccc2c(c1)c(C=C1C(=O)NC(=S)NC1=O)cn2C(=O)c1ccccc1Br            CC50   > 100 µM
2  COc1ccc(C(=O)n2cc(C=C3C(=O)NC(=S)NC3=O)c3cc(OC)ccc32)cc1            CC50    > 50 µM
3  COc1ccc2c(c1)c(C=C1C(=O)NC(=S)NC1=O)cn2C(=O)c1cccc2ccccc12            CC50   > 100 µM

###

Reported CC50 by item:
System: HCT-15 (Colon Cancer)
Test: five dose-response growth inhibition/cytotoxicity, HCT-15
Type: cell-based, human
Settings: read-out: LC50 (the source's name)
property-label: CC50

>>> df
                                   molecule  obs_value
0  COc1ccc2c(c1)c(C=C1C(=O)NC(=S)NC1=O)cn2C(=O)c1cccc2ccccc12 [Compound 3w]   > 100 µM
1  O=C1NC(=S)NC(=O)C1=Cc1cn(C(=O)c2cccc3ccccc23)c2ccccc12 [Compound 3t]   > 100 µM
2  COc1ccc(C(=O)n2cc(C=C3C(=O)NC(=S)NC3=O)c3cc(OC)ccc32)cc1 [Compound 3k]    ≥ 50 µM
3  COc1ccc2c(c1)c(C=C1C(=O)NC(=S)NC1=O)cn2C(=O)c1ccccc1Br [Compound 3s]    89.9 µM

###

Test system: SR (Leukemia)
Assay: five dose-response growth inhibition/cytotoxicity, SR
Format: cell-based, human
Conditions: read-out: LC50 (the source's name)
property-label: CC50 (µM)

                               smiles_input  units_symbol  readout_qualifier  obs_value
0  COc1ccc2c(c1)c(C=C1C(=O)NC(=S)NC1=O)cn2C(=O)c1ccccc1Br            µM                  >        100
1  COc1ccc2c(c1)c(C=C1C(=O)NC(=S)NC1=O)cn2C(=O)c1cccc2ccccc12            µM                  >        100
2  COc1ccc(C(=O)n2cc(C=C3C(=O)NC(=S)NC3=O)c3cc(OC)ccc32)cc1            µM                  =       39.4
3  O=C1NC(=S)NC(=O)C1=Cc1cn(C(=O)c2cccc3ccccc23)c2ccccc12            µM                  =       92.3

###

System: HCT-116 (Colon Cancer)
Experiment: five dose-response growth inhibition/cytotoxicity, HCT-116
Assay type: cell-based, human
Settings: read-out: LC50 (the source's name)
Reported CC50 by item:
property-label: CC50

                                   compound  obs_value
0  O=C1NC(=S)NC(=O)C1=Cc1cn(C(=O)c2cccc3ccccc23)c2ccccc12 [Compound 3t]   > 100 µM
1  COc1ccc2c(c1)c(C=C1C(=O)NC(=S)NC1=O)cn2C(=O)c1ccccc1Br [Compound 3s]   > 100 µM
2  COc1ccc2c(c1)c(C=C1C(=O)NC(=S)NC1=O)cn2C(=O)c1cccc2ccccc12 [Compound 3w]   > 100 µM
3  COc1ccc(C(=O)n2cc(C=C3C(=O)NC(=S)NC3=O)c3cc(OC)ccc32)cc1 [Compound 3k]    ≥ 50 µM

###

Test system: KM-12 (Colon Cancer)
Conditions: read-out: LC50
Reported CC50 by item:
property-label: CC50

>>> df
                               smiles_input  obs_value
0  COc1ccc2c(c1)c(C=C1C(=O)NC(=S)NC1=O)cn2C(=O)c1ccccc1Br    51.9 µM
1  COc1ccc(C(=O)n2cc(C=C3C(=O)NC(=S)NC3=O)c3cc(OC)ccc32)cc1    ≥ 50 µM

###

Test system: HOP-62 (Non-Small Cell Lung Cancer)
Experiment: five dose-response growth inhibition/cytotoxicity, HOP-62
Assay type: cell-based, human
Conditions: read-out: LC50 (the source's name)
property-label: CC50 (µM)

>>> print(df.to_string())
                               smiles_input                               system  readout_qualifier  obs_value
0  O=C1NC(=S)NC(=O)C1=Cc1cn(C(=O)c2cccc3ccccc23)c2ccccc12  HOP-62 (Non-Small Cell Lung Cancer)                  =       44.8
1  COc1ccc2c(c1)c(C=C1C(=O)NC(=S)NC1=O)cn2C(=O)c1ccccc1Br  HOP-62 (Non-Small Cell Lung Cancer)                  =       64.3
2  COc1ccc(C(=O)n2cc(C=C3C(=O)NC(=S)NC3=O)c3cc(OC)ccc32)cc1  HOP-62 (Non-Small Cell Lung Cancer)                  >         50
3  COc1ccc2c(c1)c(C=C1C(=O)NC(=S)NC1=O)cn2C(=O)c1cccc2ccccc12  HOP-62 (Non-Small Cell Lung Cancer)                  >        100

###

System: HOP-92 non-small cell lung cancer
Assay: five dose-response growth inhibition/cytotoxicity, HOP-92
Format: cell-based, human
Settings: read-out: LC50 (the source's name)
Reported CC50 by item:
property-label: CC50 (µM)

In [3]: df
Out[3]:
                               smiles_input                             system  property_label  readout_qualifier  obs_value
0  O=C1NC(=S)NC(=O)C1=Cc1cn(C(=O)c2cccc3ccccc23)c2ccccc12  HOP-92 non-small cell lung cancer            CC50                  =       44.8
1  COc1ccc2c(c1)c(C=C1C(=O)NC(=S)NC1=O)cn2C(=O)c1cccc2ccccc12  HOP-92 non-small cell lung cancer            CC50                  ≥        100

###

Reported CC50 by item:
Test system: DU-145 (Prostrate Cancer)
Experiment: five dose-response growth inhibition/cytotoxicity, DU-145
Assay type: cell-based, human
Conditions: read-out: LC50 (the source's name)
property-label: CC50 (µM)

                                   compound                     system  property_label  units_symbol  readout_qualifier  obs_value
0  COc1ccc(C(=O)n2cc(C=C3C(=O)NC(=S)NC3=O)c3cc(OC)ccc32)cc1 [Compound 3k]  DU-145 (Prostrate Cancer)            CC50            µM                  >         50
1  COc1ccc2c(c1)c(C=C1C(=O)NC(=S)NC1=O)cn2C(=O)c1ccccc1Br [Compound 3s]  DU-145 (Prostrate Cancer)            CC50            µM                  =       53.6

###

Test system: NCI/ADR-RES (Ovarian Cancer)
Assay: five dose-response growth inhibition/cytotoxicity, NCI/ADR-RES
Type: cell-based, human
Details: read-out: LC50 (the source's name)
property-label: CC50

In [3]: df
Out[3]:
                               smiles_input                        system  obs_value
0  COc1ccc2c(c1)c(C=C1C(=O)NC(=S)NC1=O)cn2C(=O)c1cccc2ccccc12  NCI/ADR-RES (Ovarian Cancer)   > 100 µM
1  COc1ccc(C(=O)n2cc(C=C3C(=O)NC(=S)NC3=O)c3cc(OC)ccc32)cc1  NCI/ADR-RES (Ovarian Cancer)    > 50 µM
2  O=C1NC(=S)NC(=O)C1=Cc1cn(C(=O)c2cccc3ccccc23)c2ccccc12  NCI/ADR-RES (Ovarian Cancer)   > 100 µM
3  COc1ccc2c(c1)c(C=C1C(=O)NC(=S)NC1=O)cn2C(=O)c1ccccc1Br  NCI/ADR-RES (Ovarian Cancer)   > 100 µM

###

Test system: MDA-MB-435 (Melanoma)
Assay: five dose-response growth inhibition/cytotoxicity, MDA-MB-435
Format: cell-based, human
Conditions: MDA-MB-435; read-out: LC50 (the source's name)
property-label: CC50 (µM)

>>> df
                                   compound                 system  property_label  units_symbol  obs_value
0  COc1ccc2c(c1)c(C=C1C(=O)NC(=S)NC1=O)cn2C(=O)c1cccc2ccccc12 [Compound 3w]  MDA-MB-435 (Melanoma)            CC50            µM         12
1  COc1ccc(C(=O)n2cc(C=C3C(=O)NC(=S)NC3=O)c3cc(OC)ccc32)cc1 [Compound 3k]  MDA-MB-435 (Melanoma)            CC50            µM       3.86
2  O=C1NC(=S)NC(=O)C1=Cc1cn(C(=O)c2cccc3ccccc23)c2ccccc12 [Compound 3t]  MDA-MB-435 (Melanoma)            CC50            µM       9.23
3  COc1ccc2c(c1)c(C=C1C(=O)NC(=S)NC1=O)cn2C(=O)c1ccccc1Br [Compound 3s]  MDA-MB-435 (Melanoma)            CC50            µM       8.43
